# Tested on: Enterobacteriaceae
# Measurement Notes: Antibacterial activity against ciprofloxacin-resistant Enterobacteriaceae clinical isolates by broth microdilution method
# Format: functional
Entries annotated with measured MIC90
Property Label: MIC90

Compound: C[C@@H](O)[C@H]1C(=O)N2C(C(=O)O)=C(SCCNC=N)C[C@H]12 [IMIPENEM ANHYDROUS]
Measurement Target: Enterobacteriaceae
Endpoint Value: 1 µg/mL
--
Compound: C[C@@H](O)[C@H]1C(=O)N2C(C(=O)O)=C(S[C@@H]3CN[C@H](CNS(N)(=O)=O)C3)[C@H](C)[C@H]12
Measurement Target: Enterobacteriaceae
Endpoint Value: 0.5 µg/mL
--
Compound: C[C@@H](O)[C@H]1C(=O)N2C(C(=O)O)=C(S[C@@H]3CN[C@H](C(=O)Nc4cccc(C(=O)O)c4)C3)[C@H](C)[C@H]12
Measurement Target: Enterobacteriaceae
Endpoint Value: 4 µg/mL
--
Compound: C[C@@H](O)[C@H]1C(=O)N2C(C(=O)O)=C(S[C@@H]3CN[C@H](C(=O)N(C)C)C3)[C@H](C)[C@H]12
Measurement Target: Enterobacteriaceae
Endpoint Value: 0.25 µg/mL
--
Compound: CC(C)(O/N=C(\C(=O)N[C@@H]1C(=O)N2C(C(=O)[O-])=C(C[n+]3ccccc3)CS[C@H]12)c1csc(N)n1)C(=O)O
Measurement Target: Enterobacteriaceae
Endpoint Value: > 32 µg/mL
--
Compound: C[C@H]1COc2c(N3CCN(C)CC3)c(F)cc3c(=O)c(C(=O)O)cn1c23.C[C@H]1COc2c(N3CCN(C)CC3)c(F)cc3c(=O)c(C(=O)O)cn1c23.O
Measurement Target: Enterobacteriaceae
Endpoint Value: 64 µg/mL
